Target: GluN1/GluN3A receptors (UniProt Q05586+Q9R1M7)
Sequence (Q9R1M7 24-1135, other chains not shown): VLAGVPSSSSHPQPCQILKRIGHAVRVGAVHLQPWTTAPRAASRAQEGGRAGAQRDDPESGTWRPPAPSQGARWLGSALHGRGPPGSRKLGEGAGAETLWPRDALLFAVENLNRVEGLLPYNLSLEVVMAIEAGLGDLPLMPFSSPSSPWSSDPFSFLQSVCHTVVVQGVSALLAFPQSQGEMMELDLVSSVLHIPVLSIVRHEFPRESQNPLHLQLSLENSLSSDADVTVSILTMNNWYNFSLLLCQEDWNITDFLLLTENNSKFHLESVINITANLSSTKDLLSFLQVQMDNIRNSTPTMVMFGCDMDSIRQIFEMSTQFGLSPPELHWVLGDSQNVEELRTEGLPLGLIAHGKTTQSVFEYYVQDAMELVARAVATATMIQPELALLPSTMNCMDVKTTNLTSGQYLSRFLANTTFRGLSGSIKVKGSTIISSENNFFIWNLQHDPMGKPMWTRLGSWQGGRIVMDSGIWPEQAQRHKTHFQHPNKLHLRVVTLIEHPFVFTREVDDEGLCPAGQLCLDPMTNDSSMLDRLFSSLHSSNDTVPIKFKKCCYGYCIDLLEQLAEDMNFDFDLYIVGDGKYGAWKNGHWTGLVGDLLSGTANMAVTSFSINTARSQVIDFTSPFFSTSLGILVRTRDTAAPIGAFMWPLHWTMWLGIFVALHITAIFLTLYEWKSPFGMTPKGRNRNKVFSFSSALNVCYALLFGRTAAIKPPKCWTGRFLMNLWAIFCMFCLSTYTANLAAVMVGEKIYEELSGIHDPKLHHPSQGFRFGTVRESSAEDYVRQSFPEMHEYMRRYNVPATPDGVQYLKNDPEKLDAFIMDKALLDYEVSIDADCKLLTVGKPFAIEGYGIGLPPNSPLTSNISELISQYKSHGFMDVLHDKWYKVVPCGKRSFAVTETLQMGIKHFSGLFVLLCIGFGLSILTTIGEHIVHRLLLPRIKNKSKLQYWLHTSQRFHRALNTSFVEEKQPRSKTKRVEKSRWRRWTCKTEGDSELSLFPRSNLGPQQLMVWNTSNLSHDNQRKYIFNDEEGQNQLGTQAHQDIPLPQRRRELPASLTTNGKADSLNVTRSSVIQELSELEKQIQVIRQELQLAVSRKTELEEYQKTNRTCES
Assay: Whole-cell patch-clamp recording on GluN1/GluN3A Flp-in T-REx 293 stable cell lines
Format: cell-based, human GluN1-1a, rat GluN3A
Parameters: expressed in transfected cells
Conditions: pH 8.3
MEASUREMENT_LABEL: IC50 (µM)
Response body: numeric value in µM, unit text excluded.

Look up IC50 for this molecule: O=C(Oc1cccc(F)c1OC(=O)c1cccc(O)c1)c1cccc(O)c1 [WZB117]
1.09

====

Target: GluN1/GluN3A receptors (UniProt Q05586+Q9R1M7)
Test: Whole-cell patch-clamp recording on GluN1/GluN3A Flp-in T-REx 293 stable cell lines
Type: cell-based, human GluN1-1a, rat GluN3A
Set-up: expressed in transfected cells
Conditions: 100 μM glycine, pH 7.3, holding potential −60 mV
MEASUREMENT_LABEL: pIC50
Schema: pIC50 number; meaning minus log10 of the concentration expressed in molar units.

Any idea what pIC50 came out for O=C(Oc1cccc(F)c1OC(=O)c1cccc(O)c1)c1cccc(O)c1 on GluN1/GluN3A receptors (UniProt Q05586+Q9R1M7)?
5.94

// provenance: paper PMC9218946
